These measurements were taken from patent US11066396B2.

Notes on pIC50 obtained with HDAC8 (Homo sapiens (Human)).
Please treat pIC50 as minus the base-10 logarithm of the molar concentration.

The cases that follow already have their pIC50 on record.
O=C(C1CCN(C2CC2)CC1)N(Cc1ccc(-c2noc(C(F)(F)F)n2)cn1)c1cccc(F)c1    5.74
Cn1c([C@@H]2CCC(=O)N2c2ccc(-c3noc(C(F)(F)F)n3)cc2)nc2ccccc21    5.54
FC(F)(F)c1nc(-c2ccc(CNc3ncccn3)cc2)no1    5.41

Prompt: Find the measured pIC50: item "Cc1noc([C@@H]2CCC(=O)N2c2ccc(-c3noc(C(F)(F)F)n3)c(F)c2F)n1" , target or system HDAC8 (Homo sapiens (Human)).
Response: 5.22

Prompt: Return pIC50 measured with HDAC8 (Homo sapiens (Human)) given this compound: "COC(=O)N1CC(=O)N(Cc2ccc(-c3noc(C(F)(F)F)n3)cn2)c2ccccc21"
Response: 5.85

Prompt: What pIC50 appears in the records for this compound with HDAC8 (Homo sapiens (Human))? "O=C(C1CCOCC1)N(Cc1ccc(-c2noc(C(F)(F)F)n2)cn1)c1cccc(F)c1"
Response: 5.68

Prompt: Param readout= pIC50; system= HDAC8 (Homo sapiens (Human)); entry= "CC(=O)NCCC(=O)N(Cc1ccc(-c2noc(C(F)(F)F)n2)cc1)c1cccc(C(F)(F)F)c1" ; returns value.
Response: 5.64

Prompt: Look up pIC50 with HDAC8 (Homo sapiens (Human)) for this compound: "Cc1noc([C@@H]2CCCCN2c2ccc(-c3noc(C(F)(F)F)n3)cn2)n1"
Response: 6.00

====

In this section, each of the compounds is paired with its reported log10 IC50.
Molecular target: HDAC8 (Homo sapiens (Human), UniProt Q9BY41)
Sequence (Q9BY41 whole entry): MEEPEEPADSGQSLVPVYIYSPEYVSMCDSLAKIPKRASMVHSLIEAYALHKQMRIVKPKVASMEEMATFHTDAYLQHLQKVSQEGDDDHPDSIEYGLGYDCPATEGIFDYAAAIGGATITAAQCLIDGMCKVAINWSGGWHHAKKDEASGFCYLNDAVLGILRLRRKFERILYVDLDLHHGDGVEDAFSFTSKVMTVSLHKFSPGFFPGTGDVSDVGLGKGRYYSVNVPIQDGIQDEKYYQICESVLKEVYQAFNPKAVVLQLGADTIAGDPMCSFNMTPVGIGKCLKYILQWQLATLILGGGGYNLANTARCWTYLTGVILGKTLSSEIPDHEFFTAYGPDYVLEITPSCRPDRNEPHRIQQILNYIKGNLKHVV
Conditions: read-out: HDAC8 IC50
The base-10 logarithm of IC50, taken with IC50 in µM, is what appears here.

Worked examples, 3 compounds total:
Cc1nc(C)n(CC(=O)N(Cc2ccc(-c3noc(C(F)(F)F)n3)cc2)c2cccc(C(F)(F)F)c2)n1    0.52
CN(C(=O)[C@@H]1CCC(=O)N1c1ccc(-c2noc(C(F)(F)F)n2)c(F)c1)C(C)(C)C    1.43
O=C(Cn1cncn1)N(Cc1ccc(-c2noc(C(F)(F)F)n2)cc1)c1cccc(C(F)(F)F)c1    0.30

Prompt: Entry Fc1cccc(C2COCCN2c2ccc(-c3noc(C(F)(F)F)n3)cn2)c1 (racemic) has what log10 IC50?
Response: 0.36

Prompt: Fill blank: measured log10 IC50 of the compound Fc1ccc(C2COCCN2c2ccc(-c3noc(C(F)(F)F)n3)cn2)cc1 (racemic) is ____.
Response: 0.28

Prompt: Look up log10 IC50 for this compound: "Cc1ccc(NCc2ccc(-c3noc(C(F)(F)F)n3)cn2)nn1"
Response: 0.45

====

Consider the following pIC50 values measured on HDAC8 (Homo sapiens (Human), UniProt Q9BY41).
Remember the convention: pIC50 equals -log10 of concentration in molar.

Known pIC50 results, listed for orientation:
O=C1CCC[C@@H](c2nc3ccccc3s2)N1c1ccc(-c2noc(C(F)(F)F)n2)cc1    6.13
O=C1CCCC(c2ccccc2)N1c1ccc(-c2noc(C(F)(F)F)n2)cn1 (centres unmarked)    5.29
O=C1CCC(c2c(F)cccc2F)N1c1ccc(-c2noc(C(F)(F)F)n2)cc1F (racemic)    5.19
FC(F)(F)c1nc(-c2ccc(N3CCCC3c3cccnc3)nc2)no1 (racemic)    5.80
CN1CCN(c2ccc(-c3noc(C(F)(F)F)n3)cc2)C(c2ccccc2)C1 (centres unmarked)    5.41

Proceed to the following item.
Prompt: Under HDAC8 (Homo sapiens (Human), UniProt Q9BY41): pIC50 value of "CN1CCN(CC(=O)N(Cc2ccc(-c3noc(C(F)(F)F)n3)cc2)c2cccc(C(F)(F)F)c2)CC1" ?
Response: 5.66
